# test_summary: self-splicing fitness, log relative to wild type (ln ratio); higher = more splicing; Tetrahymena group I intron in knt gene, E. coli kanamycin selection, DiMSum; sequences stand for … in CUCUCU…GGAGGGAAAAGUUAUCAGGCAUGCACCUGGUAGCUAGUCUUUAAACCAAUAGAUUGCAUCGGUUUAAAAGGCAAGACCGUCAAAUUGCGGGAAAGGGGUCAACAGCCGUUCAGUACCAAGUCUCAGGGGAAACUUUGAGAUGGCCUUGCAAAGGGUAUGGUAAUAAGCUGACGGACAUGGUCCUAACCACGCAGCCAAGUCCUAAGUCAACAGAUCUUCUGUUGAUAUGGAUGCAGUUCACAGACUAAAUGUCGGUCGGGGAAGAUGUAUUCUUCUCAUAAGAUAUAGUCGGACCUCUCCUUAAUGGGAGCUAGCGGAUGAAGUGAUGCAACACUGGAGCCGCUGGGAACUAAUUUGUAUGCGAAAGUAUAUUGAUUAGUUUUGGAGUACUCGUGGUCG;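 note: selection with 25 µg/mL kanamycin versus none on LB agar overnight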
# test_parameters: 30 °C
Record True whenever self-splicing fitness (ln) is at -2 or higher; record False when lower.

| monomer_sequence | answer_label |
| --- | --- |
| GCGCAGCAAUAUUACGUCAU | True |
| CGUCAGCAAUAUUACGCAUA | False |
| AGGGAGCAAUAUUACGAAUG | False |

Task: Form field: self-splicing fitness (ln) at least -2? Entry: `CUGGAGCAAUAUUACGUUAG`
Result: True

Task: Form field: self-splicing fitness (ln) at least -2? Entry: `UUUGAGCAAUAUUACGCCGA`
Result: False

Task: Form field: self-splicing fitness (ln) at least -2? Entry: `GUGUAGCAAUAUUACGUCGG`
Result: False

Task: Form field: self-splicing fitness (ln) at least -2? Entry: `CUUUAGCAAUAUUACGUCAG`
Result: True

Task: Form field: self-splicing fitness (ln) at least -2? Entry: `CUGUAGCAAUAUUACGCAUA`
Result: False

Task: Form field: self-splicing fitness (ln) at least -2? Entry: `GUUCAGCAAUAUUACGAUUU`
Result: True

Task: Form field: self-splicing fitness (ln) at least -2? Entry: `AAGUAGCAAUAUUACGCCCC`
Result: True

Task: Form field: self-splicing fitness (ln) at least -2? Entry: `GACUAGCAAUAUUACGCGAG`
Result: False

Task: Form field: self-splicing fitness (ln) at least -2? Entry: `GUCCAGCAAUAUUACGAAUU`
Result: True

Task: Form field: self-splicing fitness (ln) at least -2? Entry: `GCGGAGCAAUAUUACGUAGA`
Result: False

Task: Form field: self-splicing fitness (ln) at least -2? Entry: `AAGAAGCAAUAUUACGAUUG`
Result: False

Task: Form field: self-splicing fitness (ln) at least -2? Entry: `AUUCAGCAAUAUUACGCAUA`
Result: True

Task: Form field: self-splicing fitness (ln) at least -2? Entry: `UUCUAGCAAUAUUACGUCUA`
Result: False

Task: Form field: self-splicing fitness (ln) at least -2? Entry: `UCGAAGCAAUAUUACGCCGU`
Result: True

Task: Form field: self-splicing fitness (ln) at least -2? Entry: `GCUUAGCAAUAUUACGCCAA`
Result: False

Task: Form field: self-splicing fitness (ln) at least -2? Entry: `GUCGAGCAAUAUUACGCGAU`
Result: False

Task: Form field: self-splicing fitness (ln) at least -2? Entry: `CGCAAGCAAUAUUACGAUCC`
Result: True

Task: Form field: self-splicing fitness (ln) at least -2? Entry: `CGACAGCAAUAUUACGGGUU`
Result: False

Task: Form field: self-splicing fitness (ln) at least -2? Entry: `UCUGAGCAAUAUUACGGAGC`
Result: False

Task: Form field: self-splicing fitness (ln) at least -2? Entry: `UUCUAGCAAUAUUACGCGUC`
Result: False

Task: Form field: self-splicing fitness (ln) at least -2? Entry: `AGAUAGCAAUAUUACGCAAA`
Result: False

Task: Form field: self-splicing fitness (ln) at least -2? Entry: `CCGCAGCAAUAUUACGACAA`
Result: False

Where do these numbers come from? They come from the supplement of paper PMC7877785.
